Recorded measurements of EC50, one per entry
# ASSAYED TARGET: H723R-pendrin (Homo sapiens, UniProt O43511, H723R)
# Sequence (O43511 1-780 H723R): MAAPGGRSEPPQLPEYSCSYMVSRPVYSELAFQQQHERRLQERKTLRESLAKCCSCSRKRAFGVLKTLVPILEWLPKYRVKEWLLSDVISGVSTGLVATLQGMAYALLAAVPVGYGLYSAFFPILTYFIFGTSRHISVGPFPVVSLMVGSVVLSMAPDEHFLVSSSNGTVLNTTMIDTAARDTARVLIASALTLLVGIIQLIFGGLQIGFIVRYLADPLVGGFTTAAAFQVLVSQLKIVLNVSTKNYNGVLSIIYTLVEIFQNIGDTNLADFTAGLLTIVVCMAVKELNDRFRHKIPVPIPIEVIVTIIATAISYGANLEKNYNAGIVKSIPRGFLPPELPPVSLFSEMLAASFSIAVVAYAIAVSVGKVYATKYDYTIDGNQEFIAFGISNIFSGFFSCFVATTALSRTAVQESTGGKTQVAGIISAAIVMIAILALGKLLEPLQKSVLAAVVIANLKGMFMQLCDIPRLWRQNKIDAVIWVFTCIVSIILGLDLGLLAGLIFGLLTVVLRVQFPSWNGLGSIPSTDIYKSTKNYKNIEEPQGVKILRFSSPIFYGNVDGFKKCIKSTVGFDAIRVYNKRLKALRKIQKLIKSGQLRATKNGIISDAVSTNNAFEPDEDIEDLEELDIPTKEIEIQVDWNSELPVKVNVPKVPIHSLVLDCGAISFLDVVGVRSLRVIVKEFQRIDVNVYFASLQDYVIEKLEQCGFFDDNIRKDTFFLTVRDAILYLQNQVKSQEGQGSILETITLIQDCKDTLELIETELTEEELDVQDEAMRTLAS
# EXPERIMENT: YFP fluorescence quenching assay (Cl−/I− exchange activity of pendrin)
# ASSAY CONTEXT: PANC-1 cells stably expressing human H723R-pendrin and YFP-F46L/H148Q/I152L; compound incubation 20-24 hours; iodide influx
PROPERTY LABEL: EC50

INSERT INTO results (molecule, measured_value) VALUES
  ('NC1=C(c2cccc(-c3ccc(O)c(O)c3)n2)C(=O)CN1CCC(F)(F)F [Compound 94]', '> 10 µM'),
  ('COc1ccc(-c2nccc(C3=C(N)N(c4ccccc4Cl)CC3=O)n2)cc1OC [Compound 98]', '> 10 µM'),
  ('NC1=C(c2cncc(-c3ccc(O)c(O)c3)c2)C(=O)CN1c1ccccc1Cl [Compound 47]', '> 10 µM'),
  ('NC1=C(c2cncc(-c3ccc(O)c(OC4COC4)c3)n2)C(=O)CN1CC1CCCC1 [Compound 70]', '< 5 µM'),
  ('COCOc1ccc(-c2cncc(C3=C(N)N(CC4CCCC4)CC3=O)n2)cc1OC [Compound 116]', '< 5 µM'),
  ('NC1=C(c2cc(-c3ccc(O)c(O)c3)ncn2)C(=O)CN1c1ccccc1Cl [Compound 72]', '> 10 µM'),
  ('NC1=C(c2cncc(-c3ccc(O)c(O)c3)c2)C(=O)CN1CC1CCOC1 (centres unmarked) [Compound 51]', '> 10 µM'),
  ('COc1cc(-c2ccnc(C3=C(N)N(CC4CCCC4)CC3=O)n2)ccc1O [Compound 110]', '< 5 µM'),
  ('COc1ccc(-c2cncc(C3=C(N)N(CC4CCCCC4)CC3=O)n2)cc1OC [Compound 48]', '> 10 µM'),
  ('NC1=C(c2cncc(-c3cnc(O)c(O)c3)n2)C(=O)CN1c1ccccc1Cl [Compound 38]', '> 10 µM'),
  ('COc1ccc(-c2cncc(C3=C(N)N(CCC4CCCC4)CC3=O)n2)cc1OC [Compound 44]', '< 5 µM'),
  ('COc1cc(-c2cncc(C3=C(N)N(CC4CCNC4)CC3=O)c2)ccc1O (centres unmarked) [Compound 90]', '> 10 µM'),
  ('COc1cc2c(cc1OC)CN(c1cncc(C3=C(N)N(c4ccccc4Cl)CC3=O)n1)CC2 [Compound 16]', '> 10 µM'),
  ('COc1ccc(-c2cccc(C3=C(N)N(CCC(F)(F)F)CC3=O)n2)cc1OC [Compound 93]', '> 10 µM'),
  ('NC1=C(c2cncc(-c3ccc(O)c(O)c3)n2)C(=O)CN1CCC1CCCC1 [Compound 46]', '< 5 µM'),
  ('NC1=C(c2cncc(-c3ccc(O)c(O)c3)n2)C(=O)CN1CC1CCOC1 (centres unmarked) [Compound 41]', '> 10 µM'),
  ('COc1ccc(-c2ccnc(C3=C(N)N(CCC(F)(F)F)CC3=O)n2)cc1OC [Compound 96]', '> 10 µM'),
  ('NC1=C(c2cncc(-c3ccc(O)c(OCCO)c3)n2)C(=O)CN1CC1CCCC1 [Compound 103]', '> 10 µM'),
  ('NC1=C(c2nccc(-c3ccc(O)c(O)c3)n2)C(=O)CN1CCC(F)(F)F [Compound 97]', '> 10 µM'),
  ('COc1ccc(-c2nccc(C3=C(N)N(CC4CCCC4)CC3=O)n2)cc1OC [Compound 77]', '> 10 µM'),
  ('CC(C)CN1CC(=O)C(c2cncc(-c3ccc4c(c3)n(C)c(=O)n4C)n2)=C1N [Compound 27]', '> 10 µM'),
  ('COc1ccc(-c2cccc(C3=C(N)N(c4ccccc4Cl)CC3=O)n2)cc1OC [Compound 75]', '> 10 µM'),
  ('CNc1ccc(-c2cncc(C3=C(N)N(c4ccccc4Cl)CC3=O)n2)cc1NC [Compound 23]', '> 10 µM'),
  ('NC1=C(c2cncc(-c3ccc(O)c(OC4CC(N)C4)c3)n2)C(=O)CN1CC1CCCC1 (centres unmarked) [Compound 113]', '> 10 µM'),
  ('NC1=C(c2cncc(-c3ccc(O)c(O)c3)n2)C(=O)CN1C1CCCC1 [Compound 33]', '< 5 µM'),
  ('CNc1ccc(-c2cncc(C3=C(N)N(CC(C)C)CC3=O)n2)cc1NC [Compound 26]', '> 10 µM'),
  ('NC1=C(c2ccnc(-c3ccc(O)c(O)c3)c2)C(=O)CN1c1ccccc1Cl [Compound 102]', '> 10 µM'),
  ('NC1=C(c2ccnc(-c3ccc(O)c(O)c3)n2)C(=O)CN1c1ccccc1Cl [Compound 114]', '< 5 µM'),
  ('COc1ccc(-c2cnc(C3=C(N)N(c4ccccc4F)CC3=O)nc2)cc1OC [Compound 2]', '> 10 µM'),
  ('NC1=C(c2ccnc(-c3ccc(O)c(O)c3)c2)C(=O)CN1c1ccccc1F [Compound 101]', '> 10 µM'),
  ('NC1=C(c2cncc(-c3ccc(O)c(OC4COC4)c3)n2)C(=O)CN1C1CCCC1 [Compound 117]', '5 to 10 µM'),
  ('NC1=C(c2cncc(-c3ccc(O)c(OC4COC4)c3)n2)C(=O)CN1CC1CCC1 [Compound 112]', '5 to 10 µM');
